Attribution: the supplement of paper PMC9170038

tested on: MS2 coat protein; experiment: apparent KD of MS2 coat protein; designed switch direction (-1 OFF switch, 1 ON switch): -1; higher = weaker reporter binding; details: input ligand: microRNA oligo, concentration not stated

- Construct sequence: "GAGAUGCGGAUAGGAUAUGGAAGAAAAGAAGGAUUAGAAGGGUUGGUUAGAAUACAUGAGGAUCACCCAUGUGAAUCAUGAGAA [AK ExNG1-2.3] (Eterna round: R96, puzzle: Exclusion NG 1)"
  Result units: "nM"
  apparent KD of MS2 coat protein: 81.1
- Construct sequence: "GCUCGCGGGCAAGGAUAUCCUACGCUGUUCUGGUUCGUGUCUGUUACAUGAGGAUCACCCAUGUGGGAGAAGGUGCACCAGGGU [Design 49] (Eterna round: R96, puzzle: Exclusion NG 2)"
  Result units: "nM"
  apparent KD of MS2 coat protein: 12.4
- Construct sequence: "CUCCGCCGCAGAGGAUAUGGAUGUCGGAGACAUGAGGAUCACCCAUGUAUCCUGUCGAUGAGUACCCAGAAGGUUGUCACGCAU [Eternabot solution 49] (Eterna round: R96, puzzle: Exclusion NG 2)"
  Result units: "nM"
  apparent KD of MS2 coat protein: 26
- Construct sequence: "AUUCCCACCCGAGGAUAUGCUUUAUUGCCGGGUGGUCAACAUGAGGAUCACCCAUGUAACUAAACGCAGAAGGCGGACAAUAAG [Ediner] (Eterna round: R96, puzzle: Exclusion NG 2)"
  Result units: "nM"
  apparent KD of MS2 coat protein: 116
- Construct sequence: "UUCUUAUAUGAAGGAUAUACUUAACAUGAGGAUCACCCAUGUGGUGUUGUGAGUGAGUGAGUUUAGUAGAAGGUCAAUUCUUUU [JMF's solution 95] (Eterna round: R96, puzzle: Exclusion NG 2)"
  Result units: "nM"
  apparent KD of MS2 coat protein: 326
